Measured values drawn from the kinase profiling compilation of Christmann-Franck et al. (2016) for this set.

Reported residual activity is given for each of the following compounds.
- target: UniProtKB Q15759
- Sequence (Q15759 whole entry, looked up): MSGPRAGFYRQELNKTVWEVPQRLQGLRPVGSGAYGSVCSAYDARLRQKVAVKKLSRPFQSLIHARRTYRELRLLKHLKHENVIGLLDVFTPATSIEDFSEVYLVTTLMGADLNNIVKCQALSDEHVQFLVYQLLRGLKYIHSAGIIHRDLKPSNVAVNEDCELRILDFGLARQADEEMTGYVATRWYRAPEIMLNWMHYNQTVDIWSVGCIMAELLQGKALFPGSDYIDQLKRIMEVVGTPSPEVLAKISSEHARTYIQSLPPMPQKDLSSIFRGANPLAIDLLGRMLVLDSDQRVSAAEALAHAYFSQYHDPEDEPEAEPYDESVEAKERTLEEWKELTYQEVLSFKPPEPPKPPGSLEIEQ
- procedure summary: radiometric filter-binding kinase assay
- experimental context: compound 1.0 µM
endpoint label: residual activity (%)

[[record]]
compound = "COc1ccc2c(c1)c1c3c(c4c5ccccc5n(C)c4c1n2CC(O)CN(C)C)C(=O)NC3=O (stereo not given)"
endpoint_label = "residual activity"
measurement_unit = "%"
readout_value = 102

[[record]]
compound = "NC(=O)c1ccc(-c2ccc(Oc3cncc4sc(-c5nn[nH]n5)cc34)cc2)cc1"
endpoint_label = "residual activity"
measurement_unit = "%"
readout_value = 97

[[record]]
compound = "O=C(O)c1ccc(-c2c[nH]c3ncc(-c4ccccc4)cc23)cc1C1CCCC1"
endpoint_label = "residual activity"
measurement_unit = "%"
readout_value = 112

[[record]]
compound = "O=C(N[C@@H](COc1ccc2[nH]c(=O)[nH]c2c1)c1ccccc1)c1cccn(Cc2ccc(F)c(F)c2)c1=O"
endpoint_label = "residual activity"
measurement_unit = "%"
readout_value = 110

[[record]]
compound = "Cc1ccc(=O)n(-c2ccccc2)c1"
endpoint_label = "residual activity"
measurement_unit = "%"
readout_value = 120

[[record]]
compound = "COc1cc(O)c2c(c1)[C@H]1OC1C[C@H](O)[C@H](O)C(=O)/C=C\\C[C@H](C)OC2=O (stereo not given in full)"
endpoint_label = "residual activity"
measurement_unit = "%"
readout_value = 98

[[record]]
compound = "Cc1nc(-c2ccc(OCC(C)C)c(C#N)c2)sc1C(=O)O"
endpoint_label = "residual activity"
measurement_unit = "%"
readout_value = 84

[[record]]
compound = "CCc1cncnc1N1CCN(Cc2nc3cc(C(F)(F)F)ccc3[nH]2)CC1"
endpoint_label = "residual activity"
measurement_unit = "%"
readout_value = 89

[[record]]
compound = "Cc1ccc(Sc2cnc(Nc3cccc(Br)n3)s2)cc1C(=O)N1CCN(C(=O)CN)CC1"
endpoint_label = "residual activity"
measurement_unit = "%"
readout_value = 76

[[record]]
compound = "C[C@H]1CCCC(=O)CCC/C=C/c2cc(O)cc(O)c2C(=O)O1"
endpoint_label = "residual activity"
measurement_unit = "%"
readout_value = 108

[[record]]
compound = "C=CC(=O)N1CCC[C@@H](n2nc(-c3ccc(Oc4ccccc4)cc3)c3c(N)ncnc32)C1"
endpoint_label = "residual activity"
measurement_unit = "%"
readout_value = 103

[[record]]
compound = "c1ccc2c(-c3cnn4cc(-c5ccc(N6CCNCC6)cc5)cnc34)ccnc2c1"
endpoint_label = "residual activity"
measurement_unit = "%"
readout_value = 104

[[record]]
compound = "FC(F)(F)c1ccc(-c2ccc(Oc3cncc4sc(-c5nn[nH]n5)cc34)cc2)cc1"
endpoint_label = "residual activity"
measurement_unit = "%"
readout_value = 102

[[record]]
compound = "O=C(Nc1ccccc1-c1cn2c(CN3CCNCC3)csc2n1)c1cnc2ccccc2n1"
endpoint_label = "residual activity"
measurement_unit = "%"
readout_value = 89

[[record]]
compound = "O=C1NC(=S)N[C@@H]1Cc1c[nH]c2ccccc12"
endpoint_label = "residual activity"
measurement_unit = "%"
readout_value = 94

[[record]]
compound = "COc1ccc(-n2ncc3cnc(Nc4cc(OC)c(OC)c(OCCCN5CCN(C)CC5)c4)nc32)cc1"
endpoint_label = "residual activity"
measurement_unit = "%"
readout_value = 95

[[record]]
compound = "O=C(NCCCNc1nc(Nc2cccc(CN3CCOCC3)c2)ncc1C1CC1)C1CCC1"
endpoint_label = "residual activity"
measurement_unit = "%"
readout_value = 114

[[record]]
compound = "CCCCCc1ccc(/C=C/[C@H](O)[C@@H](CO)NC)cc1"
endpoint_label = "residual activity"
measurement_unit = "%"
readout_value = 106

[[record]]
compound = "Cc1cccc(Nc2nn(C)c3ncnc(N)c23)c1"
endpoint_label = "residual activity"
measurement_unit = "%"
readout_value = 131

[[record]]
compound = "Oc1ccc2ccccc2c1SSc1c(O)ccc2ccccc12"
endpoint_label = "residual activity"
measurement_unit = "%"
readout_value = 114

[[record]]
compound = "Cn1c(=O)c2c(ncn2C)n(C)c1=O"
endpoint_label = "residual activity"
measurement_unit = "%"
readout_value = 104

[[record]]
compound = "NC(=O)c1c(NC(=O)C2CC2)sc2c1CCCC2"
endpoint_label = "residual activity"
measurement_unit = "%"
readout_value = 99

[[record]]
compound = "Cn1nc(Nc2ccc(F)cc2)c2c(N)ncnc21"
endpoint_label = "residual activity"
measurement_unit = "%"
readout_value = 132

[[record]]
compound = "CNc1nc(-c2ccc3c(N)n[nH]c3c2)cc(N2C[C@@H](C(=O)NC3CCCCC3)CC[C@H]2C)n1"
endpoint_label = "residual activity"
measurement_unit = "%"
readout_value = 105

[[record]]
compound = "CCn1c(-c2nonc2N)nc2cncc(CNC3CCNCC3)c21"
endpoint_label = "residual activity"
measurement_unit = "%"
readout_value = 96

[[record]]
compound = "Nc1cccc2c1CN(C1CCC(=O)NC1=O)C2=O (stereo not given)"
endpoint_label = "residual activity"
measurement_unit = "%"
readout_value = 96

[[record]]
compound = "NS(=O)(=O)OC[C@@H]1C[C@@H](n2ccc3c(N[C@H]4CCc5ccccc54)ncnc32)C[C@@H]1O"
endpoint_label = "residual activity"
measurement_unit = "%"
readout_value = 95

[[record]]
compound = "COc1cc(C(=O)N2CCOCC2)c(F)cc1Nc1ncc(C(F)(F)F)c(NC2CC2)n1"
endpoint_label = "residual activity"
measurement_unit = "%"
readout_value = 98

[[record]]
compound = "O=C(O)c1cc(N=Nc2ccc(S(=O)(=O)Nc3ccccn3)cc2)ccc1O"
endpoint_label = "residual activity"
measurement_unit = "%"
readout_value = 113

[[record]]
compound = "CCNc1nc(Nc2cc(F)c(C(=O)N3CCOCC3)cc2OC)ncc1C(F)(F)F"
endpoint_label = "residual activity"
measurement_unit = "%"
readout_value = 98

[[record]]
compound = "O=C1Nc2nc(-c3c(O)cccc3OCC3CC3)cc(C3CCCNC3)c2CO1 (stereo not given)"
endpoint_label = "residual activity"
measurement_unit = "%"
readout_value = 91

[[record]]
compound = "C=C1C(=O)OC2C1CC/C(C)=C/CCC1(C)OC21 (stereo not given)"
endpoint_label = "residual activity"
measurement_unit = "%"
readout_value = 111

[[record]]
compound = "CNC(=O)C1[C@H]2O[C@@](C)([C@@H]1N)n1c3ccccc3c3c4c(c5c6ccccc6n2c5c31)C(=O)NC4 (stereo not given in full)"
endpoint_label = "residual activity"
measurement_unit = "%"
readout_value = 79

[[record]]
compound = "NCC(=O)Nc1ccc(-n2nc(C(F)(F)F)cc2-c2ccc3c(ccc4ccccc43)c2)cc1"
endpoint_label = "residual activity"
measurement_unit = "%"
readout_value = 92

[[record]]
compound = "NC(=O)c1cc(-c2ccnc(NC3CCCCC3)c2)nc(N2CCNCC2)c1"
endpoint_label = "residual activity"
measurement_unit = "%"
readout_value = 96

